For each record, write down the corresponding M.I.C. S. aureus.
# Test system: Staphylococcus aureus (ATCC 23235)
# MEASUREMENT PROTOCOL: MIC/MBC broth dilution
# Format: cell-based
Please respond with the number in µg/mL and leave the unit unwritten.

-- ask // lookup M.I.C. S. aureus for Cn1c(=O)c2c(n(C)[c]([Au-][I])[n+]2C2CCCCC2O)n(C)c1=O (stereo not shown)
-- reply 150

-- ask Now the compound CC(=O)[O][Ag-][c]1n(C)c2c(c(=O)n(C)c(=O)n2C)[n+]1CC(O)c1ccccc1 (racemic)
-- reply 125

-- ask How about this compound: CC(=O)[O][Ag-][c]1n(C)c2c(c(=O)n(C)c(=O)n2C)[n+]1CCO
-- reply 125

----------
Please go through the items and note down their M.I.C. P. aeruginosa.
# System: Pseudomonas aeruginosa (ATCC 15442)
# MEASUREMENT PROTOCOL: MIC/MBC broth dilution
# Type: cell-based
Write the value in µg/mL as a bare number.

-- ask Form field: reported M.I.C. P. aeruginosa of CC(=O)[O][Ag-][c]1n(C)c2c(c(=O)n(C)c(=O)n2C)[n+]1CC(O)c1ccccc1 (racemic)
-- reply 125

-- ask Same for CC(=O)[O][Ag-][c]1n(C)c2c(c(=O)n(C)c(=O)n2C)[n+]1CCO
-- reply 150

----------
I'd be grateful if you could share measured M.I.C. K. pneumoniae for these entries.
# Test system: Klebsiella pneumoniae (ATCC 13883)
# MEASUREMENT PROTOCOL: MIC/MBC broth dilution
# Assay type: cell-based

-- ask Please report the recorded M.I.C. K. pneumoniae for Cn1c(=O)c2[nH]cnc2n(C)c1=O [Theophylline, reference compound] .
-- reply >200 µg/mL

-- ask Entry Cn1c(=O)c2c(ncn2C)n(C)c1=O [Caffeine, 1,3,7-trimethylxanthine, reference compound] please
-- reply >200 µg/mL

-- ask Moving on to the next compound: Cn1c(=O)c2c(n(C)[c]([Au-][I])[n+]2CCO)n(C)c1=O [AuL3]
-- reply >200 µg/mL

----------
# System: Escherichia coli (ATCC 25922)
# MEASUREMENT PROTOCOL: MIC/MBC broth dilution
# Format: cell-based
QUANTITY: M.I.C. E. coli

-- ask Can you look up the measured M.I.C. E. coli of Cn1c(=O)c2[nH]cnc2n(C)c1=O [Theophylline, reference compound] for me?
-- reply >200 µg/mL

-- ask Now try Cn1c(=O)c2c(ncn2C)n(C)c1=O [Caffeine, 1,3,7-trimethylxanthine, reference compound] .
-- reply >200 µg/mL

-- ask And what about the molecule Cn1c(=O)c2c(n(C)[c]([Au-][I])[n+]2CCO)n(C)c1=O ?
-- reply >200 µg/mL

----------
# System: MDA-MB-231
# MEASUREMENT PROTOCOL: MTT cell viability assay
# Assay type: cell-based, human
# SETTINGS: 72 h
QUANTITY: IC50

-- ask Form field: reported IC50 of CC(=O)[O][Ag-][c]1n(C)c2c(c(=O)n(C)c(=O)n2C)[n+]1CCO
-- reply > 100 µM

-- ask Same thing, different compound: Cn1c(=O)c2c(n(C)[c]([Au-][I])[n+]2C2CCCCC2O)n(C)c1=O (stereo not drawn)
-- reply > 100 µM

-- ask Also need Cn1c(=O)c2c(n(C)[c]([Au-][I])[n+]2CCO)n(C)c1=O , thanks.
-- reply > 100 µM
